EC50 (read off the curve) values by entry
SYSTEM: T1, cynomolgus monkey IL-21R expressed on cells (cynomolgus monkey, UniProt G7Q0S8 41-559)
T1 construct: whole, on cells
PROTOCOL DETAILS: cell-based ELISA on CHO cells transiently expressing cynomolgus monkey IL-21R; HRP anti-human IgG, A450
Description: FIG. 6(a-l) depicts the binding of 21 anti-IL-21R IgGs to CHO cells transiently expressing human IL-21R (FIGS. 6a-c), rat IL-21R (FIGS. 6d-f), cynomolgus monkey IL-21R (FIGS. 6g-i), and human gamma common chain (FIGS. 6j-1). CHO cells were transiently transfected with IL-21R or the control gamma common chain, and binding was detected with HRP-conjugated anti-human IgG in a cell-based ELISA. […]

// below: answered binders
Need EC50 (read off the curve), item AbO (antibody, human IgG1, V domains shown, CDR3 graft, residue limits derived as for m29; also called VHP/VL16; VHPTM/VL16) VH: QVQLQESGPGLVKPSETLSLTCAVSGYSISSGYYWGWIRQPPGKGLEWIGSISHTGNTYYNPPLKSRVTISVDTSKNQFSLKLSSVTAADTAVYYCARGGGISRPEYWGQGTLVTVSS VL: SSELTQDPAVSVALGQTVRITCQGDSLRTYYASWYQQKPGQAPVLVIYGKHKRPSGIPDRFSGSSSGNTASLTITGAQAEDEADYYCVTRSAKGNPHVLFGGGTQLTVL ~0.5 nM

Need EC50 (read off the curve), item AbK (antibody, IgG1, V domains shown, As for AbA: IgG1/lambda, CDR3 graft, residue limits derived; also called VH3/VL3) VH: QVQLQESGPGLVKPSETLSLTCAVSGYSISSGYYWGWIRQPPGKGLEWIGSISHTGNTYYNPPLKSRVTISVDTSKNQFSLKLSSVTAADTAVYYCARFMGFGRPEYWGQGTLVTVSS VL: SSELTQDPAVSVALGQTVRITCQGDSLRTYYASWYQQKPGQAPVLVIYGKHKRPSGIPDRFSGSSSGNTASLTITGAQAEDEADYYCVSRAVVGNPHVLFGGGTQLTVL ~2 nM

# input for lookup
Need EC50 (read off the curve), item AbF (antibody, IgG1, V domains shown, As for AbA: IgG1/lambda, CDR3 graft, residue limits derived; also called VHP/VL17) VH: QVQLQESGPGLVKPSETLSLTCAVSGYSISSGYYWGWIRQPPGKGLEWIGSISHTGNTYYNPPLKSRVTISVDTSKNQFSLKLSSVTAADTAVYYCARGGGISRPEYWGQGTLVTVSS VL: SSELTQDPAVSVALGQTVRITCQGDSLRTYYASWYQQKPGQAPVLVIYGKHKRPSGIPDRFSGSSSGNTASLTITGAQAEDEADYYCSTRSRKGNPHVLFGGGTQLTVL ~0.5 nM

Data origin, for the record: patent US20120276102A1
